experiment: NCI Yeast Anticancer Drug Screen. Data for the bub3 strain (AID 167); details: S. cerevisiae bub3 mutant strain, at 50.0 µM, hits give high values
About 79,000 compounds went through this panel and 15% of them were active in at least one assay; those are over-represented in the sample as a whole.
growth inhibition listing for selected compounds.
Express the result in % but write the number alone.

C=CCN1C(=O)C/C(=C2/CCC(=O)N2CC=C)C1=O    1.8
O=CNn1cn[nH]c1=S    8.75
C=C1C(=O)O[C@H]2C3OC3(C)CC/C=C(/C(=O)OC)[C@@H](OC(C)=O)[C@H](OC(=O)C3(C)OC3C)[C@H]12 (stereo partly specified)    5.55

// growth inhibition value for CCOc1ccccc1C(=O)O : -12.1

The value of growth inhibition measured for the compound N#C/C(=C\c1cc(Br)cc(Br)c1O)c1ccc([N+](=O)[O-])cc1 turned out to be 22.3

Looking up CC1=CC(C)(C)N=C2SC(=O)c3nc4ccccc4c(=O)n3N12 , I found its growth inhibition recorded as 15.1

---

test: NCI Yeast Anticancer Drug Screen. Data for the cln2 rad14 strain (AID 165);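 note: 0% = growth equal to vehicle treated cultures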; conditions: S. cerevisiae cln2 rad14 strain, at 50.0 µM, hits give high values
Compounds without any hit were thinned out: in the full panel of roughly 79,000, 15% have a hit.
Observation type: growth inhibition (%)
Write it as a number; the unit % goes unstated.

# annotated cases, reported growth inhibition shown
Cc1nc2c(N3CCOCC3)ncnc2o1    -27.4
SC1(S)CCCN(Cc2ccccc2)C1    35.6

Please find the next molecule below.
growth inhibition measured on Cc1ncc([N+](=O)[O-])n1CCNC(=O)CCCCn1ccnc1[N+](=O)[O-] = 15.1

---

assay: NCI Yeast Anticancer Drug Screen. Data for the cln2 rad14 strain (AID 165);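 note: 0% = growth equal to vehicle treated cultures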; conditions: S. cerevisiae cln2 rad14 strain, at 50.0 µM, hits give high values
The panel holds about 79,000 compounds, 15% with a hit somewhere; the sample as a whole holds those more often.
Kind request: treat 10% as inclusive, so growth inhibition at 10% or higher is T, anything lower is F.

N#Cc1nnc2cc(-c3ccccc3)nn2c1-c1ccco1    T
OC(c1cccc(OCc2ccccc2)c1)c1ccccn1 (configuration not stated)    F
Cc1cccc2c(NCCC[N+](C)(C)[O-])c3c([N+](=O)[O-])ccc(C)c3nc12    F
CC12CCC(/C(=N/O)C1=O)C2(C)C (configuration not stated)    F
Cc1cc2c(C)[nH]nc2c(C(=O)O)c1C    T

(Q) Tell me whether growth inhibition is at least 10% here: Cc1c2ccn3c(=O)c4ccccc4cc3c2c(C)c2c1[nH]c1ccccc12
(A) T

(Q) Entry CC12CCCC=C1C(C)(C)C(O)CC2 (configuration not stated) : is its growth inhibition no less than 10%?
(A) F

---

Recorded measurements of growth inhibition, one per entry
test: NCI Yeast Anticancer Drug Screen. Data for the cln2 rad14 strain (AID 165);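 note: 0% = growth equal to vehicle treated cultures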; conditions: S. cerevisiae cln2 rad14 strain, at 50.0 µM, hits give high values
Compounds without any hit were thinned out: in the full panel of roughly 79,000, 15% have a hit.
Express it in %; write the number only.

Please review the entries below; each comes with its answer.
CN(C)c1ccc(-c2nc(N)nc3c2CCCC3)cc1    22.4
COC(=N)CCCl    7.2
Cc1nc2c(c(=O)[nH]1)S/C(=C(/C#N)c1nc3ccccc3[nH]1)N2c1ccccc1    -22
c1ccc(P(=Nc2cccc(N=P(c3ccccc3)(c3ccccc3)c3ccccc3)c2)(c2ccccc2)c2ccccc2)cc1    -2.6
COC(=O)C1C2OC(C(Br)C2Br)C1C(=O)OC (stereo unspecified)    -1.95

Looking up CCOC(=O)CC/C(=C\NC(=O)c1ccccc1)NC(=O)c1ccccc1 , I see its growth inhibition listed as 16.2

---

experiment: NCI Yeast Anticancer Drug Screen. Data for the sgs1 mgt1 strain (AID 161);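 note: 0% = growth of cultures given vehicle only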; conditions: S. cerevisiae sgs1 mgt1 strain, at 50.0 µM, hits give high values
The panel holds about 79,000 compounds, 15% with a hit somewhere; the sample as a whole holds those more often.
Observation type: growth inhibition (%)
Write it as a number; the unit % goes unstated.

Example entries and their recorded answers appear below.
Clc1nc(Sc2ccc(Br)cc2)c(Cl)c(Sc2ccc(Br)cc2)n1    8.05
C=CCOCOC(C)C(=O)OCC (stereo not given)    -8.35
COc1ccc(CCCNC(=O)c2cc(OC)c(OC)cc2CCO)cc1OC    -45.5
c1ccc(-c2cc(-c3ccccc3)nc(-c3ccncc3)c2)cc1    2.9
COc1ccc(-c2cc(C(=O)O)c3cc4ccccc4cc3n2)cc1Br    13.7
CC(=O)C(N=Nc1nc2ccccc2[nH]1)C(C)=O    -1.8
CCOC(=O)CC/C(=C\NC(=O)c1ccccc1)NC(=O)c1ccccc1    -21.6
COC(=O)C(O)(C(=O)OC)C1=C(N)C(=O)c2ccccc2C1=O    17.8
CCN(CC)CCO/N=C(\c1ccccc1)c1ccccn1    16.9
CCOC(CN(C(C)C)C(C)C)OCC    8

So for C/C(=C\O[Si](C)(C)C)c1ccccc1 , the logged growth inhibition turned out to be 12.4

// growth inhibition lookup, molecule = CC(=O)Nc1c(C(=N)C#N)ncn1CCO , result: 8.35

Value of measured growth inhibition for the entry NC(=O)C(c1ccccc1)c1ccnc2ccccc12 (stereo not given) : 7.9

Measured growth inhibition, Cc1cc(=O)c2cc(Cc3ccc(N)cc3)ccc2[nH]1 : -8

---

This listing pairs compounds with measured growth inhibition.
experiment: NCI Yeast Anticancer Drug Screen. Data for the cln2 rad14 strain (AID 165);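 note: 0% = growth equal to vehicle treated cultures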; conditions: S. cerevisiae cln2 rad14 strain, at 50.0 µM, hits give high values
Compounds without any hit were thinned out: in the full panel of roughly 79,000, 15% have a hit.
Numbers only here, please. The scale is %.

Cc1c(I)sc(I)c1I    12.9
CC1=CC2CC(C)C1(C)CCc1ccoc12 (configuration not stated)    6.75
O=c1cccc(O)[nH]1    -0.15
CC(C)NC1(N(C)C)N=C(N(C)C)N=C(N(C)C)O1 (configuration not stated)    27
CCC(c1ccc(O)cc1)c1cc2c(cc1OCCO)OCO2 (configuration not stated)    -11.2

Entry CCO/C([O-])=C(\C=N\S(=O)(=O)c1ccc(C)cc1)[n+]1ccccc1 ; growth inhibition = -20.2

---

Parameter: growth inhibition. Scope: all listed entries.
assay: NCI Yeast Anticancer Drug Screen. Data for the mec2-1 strain (AID 157); settings: S. cerevisiae mec2-1 strain, at 50.0 µM, hits give high values
About 79,000 compounds went through this panel and 15% of them were active in at least one assay; those are over-represented in the sample as a whole.
Write the number in % without appending the unit.

CC12CCC(=O)C=C1CCC1C2CCC2(C)C(C(=O)Cn3c(=O)[nH]cc(F)c3=O)CCC12 (stereo unspecified)    1.85
N#CC(C#N)=C/C=C/C=C/c1c(Cl)cccc1Cl    1.8

Kindly note the recorded growth inhibition for N#CCCOCCN1CCN(c2cccc(Cl)c2)CC1 , which is -7.8

Just so you know, measured growth inhibition for CC(=O)OCC(=O)C1(C)CCC2(C)CCC3(C)C(=CC(=O)C4C5(C)CCC(=O)C(C)(C)C5CCC43C)C2C1 (stereo unspecified) came out at -30.8

growth inhibition measured on CCN(CC)CCNCc1c[nH]c(=S)[nH]c1=O = -1

Kindly note the recorded growth inhibition for O=C(NC(CCS(=O)(=O)n1ccnc1)C(=O)OCc1ccccc1)OCc1ccccc1 (stereo unspecified) , which is -4.95

Form field growth inhibition, entry COc1c2c(cc3c1[C@@H]1Oc4c(ccc(O)c4CC=C(C)C)[C@@H]1CO3)OC(C)(C)C=C2 : 52.7

Memo: Clc1cc(Cc2cc(Cl)c(Cl)c3c2OCOC3)c2c(c1Cl)COCO2 , reported growth inhibition: -24.9

growth inhibition recorded for this compound, C=C1CC[N+]2(CCCC)CCCC12 (stereo unspecified) , is 29.2

Please fill in: growth inhibition reported for Cc1nc(N)[nH]c(=O)c1N = 3.4

So for CC1(C)Cc2cccc(OC(=O)NO)c2O1 , the logged growth inhibition turned out to be 24.4

---

Parameter growth inhibition: see the listing below.
assay: NCI Yeast Anticancer Drug Screen. Data for the mlh1 rad18 strain (AID 175); settings: S. cerevisiae mlh1 rad18 strain growth inhibition; at 50.0 µM; hits give high values
The panel holds about 79,000 compounds, 15% with a hit somewhere; the sample as a whole holds those more often. Activity calls are given as the source filed them. Rule as the data show it: active = growth inhibition above about 70%; inactive = the rest.

Per the record, Cc1ccc(S(=O)(=O)N/N=C2/CCCOC2)cc1 has growth inhibition of 38% (inactive)

Input O=C1OC(c2ccc(Cl)cc2)=N/C1=C\c1c(Cl)cccc1Cl . Output growth inhibition: -13.7% (inactive)

The reported growth inhibition of the compound O=C(c1cccc(Cl)c1)c1cccc(Cl)c1 was -3.25% (inactive)

Looking up NS(=O)(=O)N1CN(S(N)(=O)=O)CN(S(N)(=O)=O)C1 , I found its growth inhibition recorded as 13.4% (inactive)

growth inhibition reading for C/C(=C\c1ccccc1)C(O)C(=O)c1nc2ccc(Cl)cc2[nH]c1=O (stereo not drawn) : 6.55% (inactive)

So, Cc1cccc(N/N=C2\CCSc3ccccc32)c1 ? Its growth inhibition was 4% (inactive)

Lab book: growth inhibition of [Cl][Pt+2][Cl].[NH-]CC1(C[NH-])CCC1 noted as -40% (inactive)

Data point: CCOC(CNCc1ccncc1)OCC ; growth inhibition = -10.9% (inactive)
